assay.remarks: Compound solubility in water
Format: physicochemical
Below, each of the compounds is paired with its reported log10 of solubility value.
attribute.measured: log10 of solubility (log10 of the value in µg/mL)

[
  {
    "compound": "Cc1cc(-c2nc(Cl)cs2)nc2c(C(=O)NC(C)(C)C3CC3)ncn12",
    "reported": -0.10
  },
  {
    "compound": "Cc1cc(OC(C)C)nc2c(C(=O)NC(C3CC3)C3CC3)ncn12",
    "reported": 1.24
  },
  {
    "compound": "C[C@H](NC(=O)c1ncn2cc(-c3ccc(F)cc3)cnc12)C1CC1",
    "reported": 0.34
  },
  {
    "compound": "Cc1cc(C2CCCOC2)nc2c(C(=O)NC(C)(C)C3CC3)ncn12 (centres unmarked)",
    "reported": 1.37
  },
  {
    "compound": "Cc1cc(C)n2cnc(C(=O)NC(C)C3CCCCC3)c2n1 (centres unmarked)",
    "reported": 1.16
  }
]

###

// reported activation at 1 µM per item
subject.of.test: UniProt:P04062
Sequence (P04062 40-536): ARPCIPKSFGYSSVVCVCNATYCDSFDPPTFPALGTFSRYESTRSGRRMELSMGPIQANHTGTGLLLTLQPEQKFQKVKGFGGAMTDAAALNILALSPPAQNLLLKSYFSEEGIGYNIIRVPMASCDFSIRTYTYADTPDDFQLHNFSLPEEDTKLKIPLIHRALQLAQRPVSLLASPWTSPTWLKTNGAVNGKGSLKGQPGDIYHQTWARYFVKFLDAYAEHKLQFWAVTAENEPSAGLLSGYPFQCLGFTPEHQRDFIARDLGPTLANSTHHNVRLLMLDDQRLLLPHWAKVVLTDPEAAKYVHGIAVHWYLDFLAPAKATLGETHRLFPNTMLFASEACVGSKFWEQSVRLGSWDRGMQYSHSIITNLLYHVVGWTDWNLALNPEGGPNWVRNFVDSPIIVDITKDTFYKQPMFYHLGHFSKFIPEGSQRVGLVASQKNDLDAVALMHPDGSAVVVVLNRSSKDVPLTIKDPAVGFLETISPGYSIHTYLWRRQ
assay.remarks: Glucocerebrosidase (Gcase) activation assay, 4-methylumbelliferyl-beta-D-glucopyranoside substrate, with saposin C
Format: biochemical
test.conditions: test compound at 1.0 μM; read-out: Percent Gcase Activation, 1 μM Test Compound
attribute.measured: activation at 1 µM

[
  {
    "compound": "Cc1cc(-c2cscc2C#N)nc2c(C(=O)NC(C3CC3)C(F)(F)F)ncn12 (stereo not drawn)",
    "reported": "> 60%"
  },
  {
    "compound": "COc1cc(F)cc(-c2cc(C)n3cnc(C(=O)N[C@@H](C)C(F)(F)F)c3n2)c1",
    "reported": "> 60%"
  },
  {
    "compound": "COc1cccc(-c2cc(C)n3cnc(C(=O)NC(C4CC4)C(F)(F)F)c3n2)c1C#N (stereo not drawn)",
    "reported": "> 60%"
  },
  {
    "compound": "Cc1cc(-c2ccc3c(c2)OCO3)nc2c(C(=O)N[C@@H](C)C3CC3)ncn12",
    "reported": "> 60%"
  },
  {
    "compound": "Cc1cc(C#N)c(-c2cc(C)n3cnc(C(=O)N[C@H](C4CC4)C(F)(F)F)c3n2)o1",
    "reported": "> 60%"
  },
  {
    "compound": "Cc1cc(Oc2ccncc2)nc2c(C(=O)N[C@@H](C)C3CC3)ncn12",
    "reported": "< 30%"
  },
  {
    "compound": "Cc1cc(-c2cccc(F)c2)nc2c(C(=O)N[C@@H](C3CC3)C(F)(F)F)ncn12",
    "reported": "> 60%"
  },
  {
    "compound": "Cc1cc(-c2cccc3ncnn23)nc2c(C(=O)NC(C3CC3)C(F)(F)F)ncn12 (stereo not drawn)",
    "reported": "30 to 60%"
  },
  {
    "compound": "CCOc1cccc(-c2cc(C)n3cnc(C(=O)NC(C4CC4)C(F)(F)F)c3n2)n1 (stereo not drawn)",
    "reported": "> 60%"
  },
  {
    "compound": "CCCCO[C@H]1C[C@H]2CC[C@@H](C1)[C@@H]2NC(=O)c1ncn2c(COC)cc(C)nc12",
    "reported": "30 to 60%"
  },
  {
    "compound": "Cc1cc(-c2ccon2)nc2c(C(=O)NC(C3CC3)C(F)(F)F)ncn12 (stereo not drawn)",
    "reported": "30 to 60%"
  },
  {
    "compound": "Cc1cc(-c2occc2C#N)nc2c(C(=O)NC(C3CC3)C(F)(F)F)ncn12 (stereo not drawn)",
    "reported": "> 60%"
  },
  {
    "compound": "Cc1cc(-n2ccc(Cl)n2)nc2c(C(=O)NC(C)C(F)(F)F)ncn12 (stereo not drawn)",
    "reported": "30 to 60%"
  },
  {
    "compound": "Cc1cc(-c2cccc3c2OCO3)nc2c(C(=O)N[C@H](C)C3CC3)ncn12",
    "reported": "> 60%"
  },
  {
    "compound": "Cc1cc(-c2ccc(C#N)s2)nc2c(C(=O)NC(C3CC3)C(F)(F)F)ncn12 (stereo not drawn)",
    "reported": "> 60%"
  },
  {
    "compound": "Cc1cc(-c2cccc3ncoc23)nc2c(C(=O)N[C@H](C3CC3)C(F)(F)F)ncn12",
    "reported": "> 60%"
  },
  {
    "compound": "Cc1cc(-c2cccc3ncoc23)nc2c(C(=O)N[C@@H](C3CC3)C(F)(F)F)ncn12",
    "reported": "> 60%"
  },
  {
    "compound": "Cc1cc(-c2cccc(F)c2C#N)nc2c(C(=O)NC(C3CC3)C(F)(F)F)ncn12 (stereo not drawn)",
    "reported": "> 60%"
  }
]
